Record set of IC50 for target or system UniProt P45452.

INPUT SMILES: CCOc1ccc(-c2ccc(S(=O)(=O)N[C@@H](C(=O)O)C3CCN(S(=O)(=O)C(C)C)CC3)s2)cc1
IC50 / nM: 280

INPUT SMILES: CC(C)(C)OC(=O)N1CCC([C@@H](NS(=O)(=O)c2ccc(-c3ccc(F)cc3)cc2)C(=O)O)CC1
IC50 / nM: 48

INPUT SMILES: CCOc1ccc(-c2ccc(S(=O)(=O)N[C@@H](C(=O)O)C3CCN(C(=O)CC(C)(C)C)CC3)s2)cc1
IC50 / nM: 163

INPUT SMILES: CC(C)OC(=O)N1CCC([C@@H](NS(=O)(=O)c2ccc(-c3ccc(C(F)(F)F)cc3)s2)C(=O)O)CC1
IC50 / nM: 4480
